Target System: NLRP3 inflammasome (Homo sapiens, UniProt Q96P20)
Construct: endogenous in cells
Sequence (Q96P20 whole entry): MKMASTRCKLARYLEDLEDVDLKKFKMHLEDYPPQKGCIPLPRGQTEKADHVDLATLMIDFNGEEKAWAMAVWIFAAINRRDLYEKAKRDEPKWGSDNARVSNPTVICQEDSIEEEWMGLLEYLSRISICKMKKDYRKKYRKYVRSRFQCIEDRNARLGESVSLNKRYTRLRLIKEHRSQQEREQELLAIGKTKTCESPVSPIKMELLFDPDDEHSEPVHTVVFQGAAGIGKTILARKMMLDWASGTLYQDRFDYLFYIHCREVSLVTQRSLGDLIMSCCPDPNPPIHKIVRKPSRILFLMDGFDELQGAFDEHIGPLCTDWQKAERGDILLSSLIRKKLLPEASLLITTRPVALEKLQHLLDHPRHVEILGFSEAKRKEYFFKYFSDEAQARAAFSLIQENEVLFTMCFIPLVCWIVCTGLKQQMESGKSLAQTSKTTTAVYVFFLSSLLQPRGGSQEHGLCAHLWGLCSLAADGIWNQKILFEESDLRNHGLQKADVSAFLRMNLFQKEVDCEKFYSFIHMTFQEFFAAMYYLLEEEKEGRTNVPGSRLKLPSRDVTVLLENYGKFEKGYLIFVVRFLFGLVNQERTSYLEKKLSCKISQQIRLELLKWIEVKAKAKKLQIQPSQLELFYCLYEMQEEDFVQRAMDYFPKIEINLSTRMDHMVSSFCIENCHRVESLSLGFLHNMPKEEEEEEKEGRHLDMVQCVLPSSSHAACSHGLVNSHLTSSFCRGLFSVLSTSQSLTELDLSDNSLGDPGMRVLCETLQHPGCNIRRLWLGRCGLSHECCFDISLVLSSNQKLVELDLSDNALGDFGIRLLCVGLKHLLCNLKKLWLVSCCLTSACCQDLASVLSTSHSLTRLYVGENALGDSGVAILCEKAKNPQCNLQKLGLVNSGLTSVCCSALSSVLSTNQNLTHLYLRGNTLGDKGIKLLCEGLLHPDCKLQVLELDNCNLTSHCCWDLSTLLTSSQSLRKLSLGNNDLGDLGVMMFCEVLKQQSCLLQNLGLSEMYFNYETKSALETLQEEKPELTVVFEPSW
Measurement Notes: Cell assay of inhibitory activity against NLRP3 inflammasome in THP-1 cells (LPS/nigericin stimulation, caspase-1 glo readout)
Test Context: PMA-differentiated THP-1 cells; LPS 500 ng/ml 3 h, compound 1 h, nigericin 10 µg/ml 30 min; active caspase-1 in supernatant
Readout Type: pIC50
Keep it numeric: pIC50 is minus log10 of the concentration in mol/L.

Per the record, C#Cc1ccc(-c2nnc(NC(=O)[C@@H](C)NC)cc2C2CC2)c(O)c1 has pIC50 of 8.54

Per the record, C#Cc1ccc(-c2nnc(NC(=O)[C@H](N)[C@@H](C)O)cc2C2CC2)c(O)c1 has pIC50 of 7.49

Per the record, CNCC(=O)Nc1cc(C)c(-c2ccc(C(F)(F)F)cc2O)nn1 has pIC50 of 7.75

Per the record, C#Cc1ccc(-c2nnc(NC(=O)[C@H](N)C3CC3)cc2C2CC2)c(O)c1 has pIC50 of 8.23

Per the record, C#Cc1ccc(-c2nnc(NC(=O)[C@H](N)C(C)C)cc2C2CC2)c(O)c1 has pIC50 of 8.15

Per the record, C#Cc1ccc(-c2nnc(NC(=O)CNC3CC(O)C3)cc2C2CC2)c(O)c1 (centres unmarked) has pIC50 of 7.84

Per the record, C#Cc1ccc(-c2nnc(NC(=O)CNCC3CC3)cc2C)c(O)c1 has pIC50 of 7.73

Per the record, CNCC(=O)Nc1cc(C2CCC2)c(-c2ccc(C(F)(F)F)cc2O)nn1 has pIC50 of 8.21

Per the record, C#Cc1ccc(-c2nnc(NC(=O)CNC3CCC3)cc2C)c(O)c1 has pIC50 of 7.88

Per the record, C#Cc1ccc(-c2nnc(NC(=O)[C@H](N)Cc3ccccc3)cc2C2CC2)c(O)c1 has pIC50 of 7.89

Per the record, C#Cc1ccc(-c2nnc(NC(=O)CNC)cc2C2CCC2)c(O)c1 has pIC50 of 7.68

Per the record, C#Cc1ccc(-c2nnc(NC(=O)[C@@H](C)N)cc2C(C)C)c(O)c1 has pIC50 of 7.86

Per the record, C#Cc1ccc(-c2nnc(NC(=O)CNCC)cc2C2CC2)c(O)c1 has pIC50 of 8.85

Per the record, CNCC(=O)Nc1cc(C2CC2)c(-c2ccc(Cl)cc2O)nn1 has pIC50 of 8.25

Per the record, C#Cc1ccc(-c2nnc(NC(=O)[C@H](N)COC)cc2C2CC2)c(O)c1 has pIC50 of 7.84

Per the record, C#Cc1ccc(-c2nnc(NC(=O)CNC(C)C)cc2C)c(O)c1 has pIC50 of 7.49

Per the record, C[C@@H](N)C(=O)Nc1cc(C2CCC2)c(-c2ccc(C(F)(F)F)cc2O)nn1 has pIC50 of 8.14

====

Exercise: for every item that follows, state its recorded IC50.
Target System: NLRP3 inflammasome (Homo sapiens, UniProt Q96P20)
Construct: endogenous in cells
Measurement Notes: Cell assay of inhibitory activity against NLRP3 inflammasome in THP-1 cells (LPS/nigericin stimulation, caspase-1 glo readout)
Test Context: PMA-differentiated THP-1 cells; LPS 500 ng/ml 3 h, compound 1 h, nigericin 10 µg/ml 30 min; active caspase-1 in supernatant
All answers are understood in nM, so give the number only.

Per the record, C#Cc1ccc(-c2nnc(NC(=O)[C@H](N)CO)cc2C2CC2)c(O)c1 has IC50 of 23.6

Per the record, C#Cc1ccc(-c2nnc(NC(=O)[C@H]3CCCN3)cc2C2CC2)c(O)c1 has IC50 of 21.4

Per the record, C[C@@H](N)C(=O)Nc1cc(C2CC2)c(-c2ccc(C(F)(F)F)cc2O)nn1 has IC50 of 6.8

Per the record, C#Cc1ccc(-c2nnc(NC(=O)CNC)cc2C)c(O)c1 has IC50 of 16.5

Per the record, C#Cc1ccc(-c2nnc(NC(=O)CNCC)cc2C)c(O)c1 has IC50 of 18.1

Per the record, C#Cc1ccc(-c2nnc(NC(=O)CNC)cc2C2CC2)c(O)c1 has IC50 of 1.3

Per the record, C#Cc1ccc(-c2nnc(NC(=O)CN)cc2C2CC2)c(O)c1 has IC50 of 23.2

Per the record, C#Cc1ccc(-c2nnc(NC(=O)CNC(C)C)cc2C2CC2)c(O)c1 has IC50 of 9.7

Per the record, CC(C)c1cc(NC(=O)[C@@H](C)N)nnc1-c1ccc(C(F)(F)F)cc1O has IC50 of 14.1

Per the record, CNCC(=O)Nc1cc(C(C)C)c(-c2ccc(C(F)(F)F)cc2O)nn1 has IC50 of 3.4

Per the record, CNCC(=O)Nc1cc(C2CC2)c(-c2ccc(C(F)(F)F)cc2O)nn1 has IC50 of 0.3

Per the record, C#Cc1ccc(-c2nnc(NC(=O)[C@H](N)[C@H](C)O)cc2C2CC2)c(O)c1 has IC50 of 17.5

Per the record, C#Cc1ccc(-c2nnc(NC(=O)[C@H](C)NC)cc2C2CC2)c(O)c1 has IC50 of 29.4

Per the record, C#Cc1ccc(-c2nnc(NC(=O)CNC3CC3)cc2C2CC2)c(O)c1 has IC50 of 19.2

Per the record, C#Cc1ccc(-c2nnc(NC(=O)[C@@H](C)N)cc2C2CC2)c(O)c1 has IC50 of 6.4

Per the record, CNCC(=O)Nc1nnc(-c2ccc(C(F)(F)F)cc2O)c(C2CC2)n1 has IC50 of 32.1

Per the record, C#Cc1ccc(-c2nnc(NC(=O)CNC)cc2C(C)C)c(O)c1 has IC50 of 8.5

Per the record, C#Cc1ccc(-c2nnc(NC(=O)[C@@H](C)N)cc2C2CCC2)c(O)c1 has IC50 of 31.5
